- Run Description: NCI Yeast Anticancer Drug Screen. Data for the mec2-1 strain (AID 157)
- Conditions: S. cerevisiae mec2-1 strain, at 50.0 µM, hits give high values
- Protocol: Growth inhibition of yeast strains with defined genetic alterations is measured as a screen for potential anti-cancer activity. Selected strains with alterations in DNA damage repair or cell cycle control were exposed to compounds and growth inhibition was measured relative to vehicle treated controls. The strain used in this assay is mec2-1
About 79,000 compounds went through this panel and 15% of them were active in at least one assay; those are over-represented in the sample as a whole.
The following compounds are listed with their measured growth inhibition values.
Numbers only; they are read as %.

Solved cases (3 shown):
>  <Compound>
COc1ccccc1C(Cc1ccc(N2C(N)=NC(N)=NC2(C)C)cc1)C(=O)Nc1ccc(S(=O)(=O)F)cc1 (configuration not stated)

>  <Value Units>
%

>  <growth inhibition>
95

$$$$
>  <Compound>
NC(N)=Nc1c(N)ncnc1N

>  <Value Units>
%

>  <growth inhibition>
6.2

$$$$
>  <Compound>
c1ccc2c(c1)sc1sc3ccccc3[n+]12

>  <Value Units>
%

>  <growth inhibition>
-5.65

$$$$

Q) I'd like to know its growth inhibition. The compound in question is CN(C)C(=O)Sc1ccc(S(=O)(=O)F)c(Cl)c1Cl
A) 13.3

----------
The following molecules are listed with their measured growth inhibition values.
- Run Description: NCI Yeast Anticancer Drug Screen. Data for the mec2-1 strain (AID 157)
- Conditions: S. cerevisiae mec2-1 strain, at 50.0 µM, hits give high values
Compounds without any hit were thinned out: in the full panel of roughly 79,000, 15% have a hit.
Numbers only; they are read as %.

Solved cases (6 shown):
>  <Molecule>
O=C1C=CC(=Nc2cc(Cl)c(O)c(Cl)c2)C=C1

>  <Value Units>
%

>  <growth inhibition>
42.5

$$$$
>  <Molecule>
O=C(O)c1cc(CCl)ccc1O

>  <Value Units>
%

>  <growth inhibition>
-7.95

$$$$
>  <Molecule>
O=C1CC23c4ccccc4N4C(=O)CC5OCC=C6CN1C2CC6C5C43 (stereo not drawn)

>  <Value Units>
%

>  <growth inhibition>
-34.5

$$$$
>  <Molecule>
ClCCN(CCCl)c1ccc(N=Cc2ccccc2)cc1

>  <Value Units>
%

>  <growth inhibition>
17

$$$$
>  <Molecule>
S=P(OC1CC2CCC1C2)(c1ccccc1)c1ccccc1 (stereo not drawn)

>  <Value Units>
%

>  <growth inhibition>
4.1

$$$$
>  <Molecule>
CC(Cl)CN1COc2ccc3ccc4c(c3c2C1)CN(CC(C)Cl)CO4 (stereo not drawn)

>  <Value Units>
%

>  <growth inhibition>
14.4

$$$$

Q) I'd like to know its growth inhibition. The molecule in question is O.O=[Se](=O)(O)O.[NH-]C1CCCCC1[NH-].[Pt+2] (stereo not drawn)
A) -16.9

Q) Now give it for CN(C)C(=O)C1(c2ccccc2)CCNCC1 too.
A) -1.7

----------
- Run Description: NCI Yeast Anticancer Drug Screen. Data for the mec2-1 strain (AID 157)
- Conditions: S. cerevisiae mec2-1 strain, at 50.0 µM
- Procedure: Growth inhibition of yeast strains with defined genetic alterations is measured as a screen for potential anti-cancer activity. Selected strains with alterations in DNA damage repair or cell cycle control were exposed to compounds and growth inhibition was measured relative to vehicle treated controls. The strain used in this assay is mec2-1
This is part of a sample that, as a whole, favours compounds with a hit. Of some 79,000 tested, about 15% had one in any assay. Active and inactive are the calls of the source. Rule as the data show it: active = growth inhibition above about 70%; inactive = the rest.
# valid calls are yes (1) for active, no (0) for inactive; nothing else

Past entries and their recorded results:
>  <Molecule>
[CH3][Sn]([CH3])([S]CCS(=O)(=O)O)[S]CCS(=O)(=O)O

>  <Qualitative Label>
no (0)

$$$$
>  <Molecule>
CC[C@@H](C)[C@@H]1NC(=O)C(NC(=O)C(CC(C)C)N(C)C(=O)C2CCCN2C(=O)C(C)O)C(C)OC(=O)C(Cc2ccc(OC)cc2)N(C)C(=O)C2CCCN2C(=O)C(CC(C)C)NC(=O)C(C)C(=O)C(C(C)C)OC(=O)C[C@H]1O (some centres undefined)

>  <Qualitative Label>
yes (1)

$$$$
>  <Molecule>
CCC[CH2][Sn]1([CH2]CCC)[O]C(=O)c2ccc(C)cc2[O]1

>  <Qualitative Label>
yes (1)

$$$$

Switching to the query record.
Q) Identify the outcome logged in this assay for the molecule shown: [Cl][Sn]([Cl])([c]1ccccc1)[c]1ccccc1.c1ccncc1
A) yes (1)
